- Protocol Notes: pH-dependent interaction of HA-pHLIP agents with POPC liposomes (tryptophan fluorescence)
- Assay type: physicochemical
- Particulars: position of tryptophan fluorescence maximum; HA-pHLIP with POPC liposomes at pH3 (membrane-inserted); excitation 295 nm; 7 μM agent, 1.4 mM POPC; 25°C
Measured Endpoint: λmax in state III (nm)
Number only, in nm; omit the unit.

Tell me λmax in state III reported for AK[HA-Peg12]QNDDQNK[HA-Peg12]PWRAYLDLLFPTDTLLLDLLWA [2(HA-Peg12)-pHLIP3] 337

Tell me λmax in state III reported for AK[3xHA-Peg12]QNDDQNK[3xHA-Peg12]PWRAYLDLLFPTDTLLLDLLWA [2(3xHA-Peg12)-pHLIP3] 337

Tell me λmax in state III reported for (Az)GGK[HA-Peg12]GGGK[HA-Peg12]PWRAYLELLFPTETLLLELLLA [2(HA-Peg12)-pHLIP4] 337

Tell me λmax in state III reported for (Az)GGKGGGK[HA-Peg12]PWRAYLELLFPTETLLLELLLA [HA-Peg12-pHLIP4, v2, single HA-Peg12 on second Lys of pHLIP4] 337

Tell me λmax in state III reported for K(N3)[HA-Peg12]GGGGGK(N3)[HA-Peg12]PWRAYLELLFPTETLLLELLLA [2(HA-Peg12)-pHLIP5] 340

Tell me λmax in state III reported for AK[HA-Peg24]QNDDQNK[HA-Peg24]PWRAYLDLLFPTDTLLLDLLWA [2(HA-Peg24)-pHLIP3] 337

Tell me λmax in state III reported for (Az)GGK[HA-Peg12]GGGKPWRAYLELLFPTETLLLELLLA [HA-Peg12-pHLIP4, v1, single HA-Peg12 on first Lys of pHLIP4] 337

Tell me λmax in state III reported for (Az)GGK[HA-Peg24]GGGK[HA-Peg24]PWRAYLELLFPTETLLLELLLA [2(HA-Peg24)-pHLIP4] 336

###

For each of the substances below, state its λmax in state II.
- Protocol Notes: pH-dependent interaction of HA-pHLIP agents with POPC liposomes (tryptophan fluorescence)
- Type: physicochemical
- Particulars: position of tryptophan fluorescence maximum; HA-pHLIP with POPC liposomes at pH8 (membrane-adsorbed); excitation 295 nm; 7 μM agent, 1.4 mM POPC; 25°C
Param answer (str): number followed by unit.

Tell me λmax in state II reported for K(N3)[HA-Peg12]GGGGGK(N3)[HA-Peg12]PWRAYLELLFPTETLLLELLLA [2(HA-Peg12)-pHLIP5] 346 nm

Tell me λmax in state II reported for (Az)GGKGGGK[HA-Peg12]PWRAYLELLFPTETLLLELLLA [HA-Peg12-pHLIP4, v2, single HA-Peg12 on second Lys of pHLIP4] 343 nm

Tell me λmax in state II reported for AK[3xHA-Peg12]QNDDQNK[3xHA-Peg12]PWRAYLDLLFPTDTLLLDLLWA [2(3xHA-Peg12)-pHLIP3] 351 nm

Tell me λmax in state II reported for (Az)GGK[HA-Peg12]GGGKPWRAYLELLFPTETLLLELLLA [HA-Peg12-pHLIP4, v1, single HA-Peg12 on first Lys of pHLIP4] 343 nm

Tell me λmax in state II reported for AK[HA-Peg24]QNDDQNK[HA-Peg24]PWRAYLDLLFPTDTLLLDLLWA [2(HA-Peg24)-pHLIP3] 350 nm

Tell me λmax in state II reported for AK[HA-Peg12]QNDDQNK[HA-Peg12]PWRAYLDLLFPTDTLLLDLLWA [2(HA-Peg12)-pHLIP3] 351 nm

Tell me λmax in state II reported for (Az)GGK[HA-Peg12]GGGK[HA-Peg12]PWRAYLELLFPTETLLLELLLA [2(HA-Peg12)-pHLIP4] 344 nm

Tell me λmax in state II reported for (Az)GGK[HA-Peg24]GGGK[HA-Peg24]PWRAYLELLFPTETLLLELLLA [2(HA-Peg24)-pHLIP4] 347 nm

Measured values drawn from paper PMC9853002 for this set.
